Reference for the values: ChEMBL document CHEMBL1933067

Test system UniProtKB P12268, IC50 listed for each of the molecules.
Provide the reading as a plain figure in nM.

Example entries and their recorded answers appear below.
[[record]]
smiles_str = "COc1ccc(/C=C/C(=O)Nc2ccc3c(c2)COC3=O)cc1OC"
value = 2100

[[record]]
smiles_str = "CC(C)(C)c1ccc(/C=C/C(=O)Nc2ccc3c(c2)COC3=O)cc1"
value = 3200


Problem: Please report the measured IC50 for CC(=O)Oc1ccc(/C=C/C(=O)Nc2ccc3c(c2)COC3=O)cc1OC(C)=O
Result: 2800

###

System: T-cell
Assay method text: Immunosuppressive activity in mouse T-cells assessed as inhibition of concanavalin A-induced proliferation
Type: functional, cell-based
Measured metric: pIC50
Friendly reminder that pIC50 comes from taking -log10 of the concentration in mol/L.

Problem: Please report the measured pIC50 for O=C(/C=C/c1cccc(F)c1)Nc1ccc2c(c1)COC2=O
Result: 7.47

Problem: Please report the measured pIC50 for O=C(Nc1cccc([N+](=O)[O-])c1)C(=O)Nc1ccc2c(c1)COC2=O
Result: 5.74

Problem: Please report the measured pIC50 for COc1c(C)c2c(c(O)c1C/C=C(\C)CCC(=O)O)C(=O)OC2
Result: 6.55

Problem: Please report the measured pIC50 for COc1cc(CCC(=O)Nc2ccc3c(c2)COC3=O)cc(OC)c1OC
Result: 5.11

###

Tested on: T-cell
Assay method text: Immunosuppressive activity in mouse T-cells assessed as inhibition of concanavalin A-induced proliferation
Type: functional, cell-based
Kindly apply the following: Condition met if IC50 is less than 2 µM, Condition not met in every other case.

Problem: Is 2 µM strictly greater than the compound's reported IC50? compound: COc1cc(/C=C/C(=O)Nc2ccc3c(c2)COC3=O)cc(OC)c1OC
Result: Condition met

Problem: Is 2 µM strictly greater than the compound's reported IC50? compound: Cc1cccc(NC(=O)Nc2ccc3c(c2)COC3=O)c1
Result: Condition not met

Problem: Is 2 µM strictly greater than the compound's reported IC50? compound: COc1ccccc1/C=C/C(=O)Nc1ccc2c(c1)COC2=O
Result: Condition met

Problem: Is 2 µM strictly greater than the compound's reported IC50? compound: O=C(/C=C/c1ccccc1Br)Nc1ccc2c(c1)COC2=O
Result: Condition not met

Problem: Is 2 µM strictly greater than the compound's reported IC50? compound: N#Cc1ccc(/C=C/C(=O)Nc2ccc3c(c2)COC3=O)cc1
Result: Condition not met

Problem: Is 2 µM strictly greater than the compound's reported IC50? compound: O=C(Nc1ccccc1)Nc1ccc2c(c1)COC2=O
Result: Condition not met

Problem: Is 2 µM strictly greater than the compound's reported IC50? compound: CC(C)c1ccc(/C=C/C(=O)Nc2ccc3c(c2)COC3=O)cc1
Result: Condition met

Problem: Is 2 µM strictly greater than the compound's reported IC50? compound: CC(=O)Oc1cccc(/C=C/C(=O)Nc2ccc3c(c2)COC3=O)c1
Result: Condition met

Problem: Is 2 µM strictly greater than the compound's reported IC50? compound: O=C(Nc1ccc(F)cc1)C(=O)Nc1ccc2c(c1)COC2=O
Result: Condition met

Problem: Is 2 µM strictly greater than the compound's reported IC50? compound: CC(C)(C)NC(=O)C(=O)Nc1ccc2c(c1)COC2=O
Result: Condition not met

Problem: Is 2 µM strictly greater than the compound's reported IC50? compound: COc1ccc(/C=C/C(=O)Nc2ccc3c(c2)COC3=O)cc1OC
Result: Condition met

###

System: T-cell
Assay method text: Immunosuppressive activity in mouse T-cells assessed as inhibition of concanavalin A-induced proliferation
Format: functional, cell-based
Each item that follows carries a reported IC50.
Provide the reading as a plain figure in µM.

Example entries and their recorded answers appear below.
[[record]]
smiles_str = "O=C(Nc1ccc(I)cc1)Nc1ccc2c(c1)COC2=O"
experimental_target = "T-cell"
units_text = "µM"
value = 1.37

[[record]]
smiles_str = "O=C(Nc1ccccc1)C(=O)Nc1ccc2c(c1)COC2=O"
experimental_target = "T-cell"
units_text = "µM"
value = 36.1


// below: IC50 requested for another compound
Problem: Please report the measured IC50 for CCCNC(=O)Nc1ccc2c(c1)COC2=O
Result: 58.1

###

Tested on: T-cell
Assay method text: Immunosuppressive activity in mouse T-cells assessed as inhibition of concanavalin A-induced proliferation
Assay type: functional, cell-based
Each item that follows carries a reported pIC50.
Friendly reminder that pIC50 comes from taking -log10 of the concentration in mol/L.

[[record]]
smiles_str = "COc1ccc(NC(=O)C(=O)Nc2ccc3c(c2)COC3=O)cc1"
measured_metric = "pIC50"
value = 3.81


Problem: Please report the measured pIC50 for Cc1ccccc1NC(=O)Nc1ccc2c(c1)COC2=O
Result: 6.05

Problem: Please report the measured pIC50 for O=C(Nc1ccc(F)cc1)Nc1ccc2c(c1)COC2=O
Result: 5.38

Problem: Please report the measured pIC50 for CC(=O)Oc1ccc(/C=C/C(=O)Nc2ccc3c(c2)COC3=O)cc1OC(C)=O
Result: 6.74

Problem: Please report the measured pIC50 for COc1cc(/C=C/C(=O)Nc2ccc3c(c2)COC3=O)ccc1OC(C)=O
Result: 6.87

###

Tested on: T-cell
Assay method text: Immunosuppressive activity in mouse T-cells assessed as inhibition of concanavalin A-induced proliferation
Format: functional, cell-based
Measured metric: pIC50
Friendly reminder that pIC50 comes from taking -log10 of the concentration in mol/L.

[[record]]
smiles_str = "O=C(/C=C/c1ccccc1)Nc1ccc2c(c1)COC2=O"
value = 5.14

[[record]]
smiles_str = "CC(C)(C)c1ccc(/C=C/C(=O)Nc2ccc3c(c2)COC3=O)cc1"
value = 6.14

[[record]]
smiles_str = "O=C(Nc1ccc(Cl)cc1)C(=O)Nc1ccc2c(c1)COC2=O"
value = 5.65

[[record]]
smiles_str = "O=C(Nc1ccc(Cl)cc1)Nc1ccc2c(c1)COC2=O"
value = 5.61

[[record]]
smiles_str = "Cc1ccc(NC(=O)Nc2ccc3c(c2)COC3=O)cc1"
value = 5.57


Problem: Please report the measured pIC50 for COc1cc(CN(C)C(=O)C(=O)Nc2ccc3c(c2)COC3=O)cc(OC)c1OC
Result: 5.48

Problem: Please report the measured pIC50 for O=C(/C=C/c1ccco1)Nc1ccc2c(c1)COC2=O
Result: 5.05

###

Test system: T-cell
Assay method text: Immunosuppressive activity in mouse T-cells assessed as inhibition of concanavalin A-induced proliferation
Format: functional, cell-based
pIC50: −log10 of the molar value.
Decision: pIC50 compared against 5; not below it gives 1, below it gives -1.

[[record]]
smiles_str = "CN(Cc1ccccc1)C(=O)C(=O)Nc1ccc2c(c1)COC2=O"
experimental_target = "T-cell"
answer_label = -1

[[record]]
smiles_str = "CN(C(=O)Nc1ccc2c(c1)COC2=O)c1ccccc1"
experimental_target = "T-cell"
answer_label = -1


Problem: Does the compound O=C(Nc1ccc(O)cc1)C(=O)Nc1ccc2c(c1)COC2=O have recorded pIC50 that is 5 or more?
Result: 1

Problem: Does the compound O=C(/C=C/c1ccccn1)Nc1ccc2c(c1)COC2=O have recorded pIC50 that is 5 or more?
Result: -1

Problem: Does the compound Cc1ccccc1NC(=O)C(=O)Nc1ccc2c(c1)COC2=O have recorded pIC50 that is 5 or more?
Result: 1
